Cited source for all entries: patent US7803803B2

Exercise: for every item that follows, state its recorded Ki.
Biological target: cathepsin K (Homo sapiens, UniProt P43235)
Sequence (P43235 115-329): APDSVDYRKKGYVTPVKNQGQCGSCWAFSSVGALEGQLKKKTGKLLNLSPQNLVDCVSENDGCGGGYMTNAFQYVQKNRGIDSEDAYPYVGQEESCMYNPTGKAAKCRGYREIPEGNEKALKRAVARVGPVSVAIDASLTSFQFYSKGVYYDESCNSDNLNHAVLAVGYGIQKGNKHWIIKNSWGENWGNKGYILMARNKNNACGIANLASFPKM
Assay: In vitro cathepsin Ki inhibition measurements
Type: biochemical
Design: purchased B. Turk, Josef Stefan Institute, Ljubljana, Slovenia
Details: human recombinant cathepsin K; read-out: In vitro Ki (nM) vs Cath K
Give the value in nM but do not write nM after it.

State the recorded Ki for this entry: CCCN1CCN(c2ccc(C(=O)N[C@@H](CC(C)C)C(=O)N3C[C@@H](OC)[C@H]4OCC(=O)[C@H]43)cc2)CC1
16.3

Moving on to the next compound: CO[C@@H]1CN(C(=O)[C@H](CC(C)(C)C)NC(=O)c2ccc(N3CCN(C)CC3)cc2)[C@@H]2C(=O)CO[C@@H]21
5.6

Another compound to check: COCCN1CCN(c2ccc(C(=O)N[C@@H](CC(C)C)C(=O)N3C[C@@H](N)[C@H]4OCC(=O)[C@H]43)cc2)CC1
3.5

Another: CO[C@H]1CN(C(=O)[C@@H](NC(=O)c2ccc(N3CCN(C)CC3)cc2)C2CCCC2)[C@@H]2C(=O)CO[C@H]12
1.8

----------
Test: Plasma incubations (human plasma stability); further: tested at 25 µM
Assay type: in vitro ADME
Conditions: 37° C.
What Human Plasma Stability % rem. @ 1 h was measured for each of the following?
Give the value in % but do not write % after it.

Fill in: Human Plasma Stability % rem. @ 1 h of CCN1CCN(c2ccc(C(=O)N[C@H](C(=O)N3C[C@H](OC)[C@H]4OCC(=O)[C@H]43)C3CCCC3)cc2)CC1 is ___
90.9

Note, next up: CCCN1CCN(c2ccc(C(=O)N[C@@H](CC(C)C)C(=O)N3C[C@@H](OC)[C@H]4OCC(=O)[C@H]43)cc2)CC1 [Example 15]
92

Also, CCN1CCN(c2ccc(C(=O)N[C@@H](CC(C)C)C(=O)N3C[C@@H](OC)[C@H]4OCC(=O)[C@H]43)cc2)CC1 [Example 7] please.
93

Next molecule: CCN1CCN(c2ccc(C(=O)N[C@@H](CC(C)(C)C)C(=O)N3C[C@H](OC)[C@H]4OCC(=O)[C@H]43)cc2)CC1 [Example 6]
100

Please give the result for COCCN1CCN(c2ccc(C(=O)N[C@@H](CC(C)C)C(=O)N3C[C@H](OC)[C@H]4OCC(=O)[C@H]43)cc2)CC1 [Example 27] too.
99

Let us now turn to CCCN1CCN(c2ccc(C(=O)N[C@@H](CC(C)C)C(=O)N3C[C@H](OC)[C@H]4OCC(=O)[C@H]43)cc2)CC1 [Example 13]
93
